Target: Apelin receptor (Homo sapiens)
Experiment: APJ activation via beta-arrestin recruitment – CHO-K1 cells, PathHunter beta-arrestin, luminescence, primary screen (AID 2520)
Details: at 20 µM, 0% DMSO wells, 100% apelin
About 350 (0.11%) of roughly 330,000 compounds were called active.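 The calls were made as follows: active = activation more than six SD over the plate average, tested at 20 µM; inactive = the rest.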 The sample holds actives, similar compounds and a random draw of the others, so the mix is not that of the screen.
Labels: true for active, false for inactive

[
  {
    "MOLECULE": "COc1ccc(C(=O)ON=C2c3ccccc3-c3ccccc32)cc1OC",
    "CLASSIFICATION": "false"
  },
  {
    "MOLECULE": "COC(=O)Cc1cnc(NC(=O)CSc2nc(C(C)C)cc(=O)[nH]2)s1",
    "CLASSIFICATION": "false"
  },
  {
    "MOLECULE": "Cc1noc(C)c1C(=O)NCC1COc2ccccc2O1 (stereo not drawn)",
    "CLASSIFICATION": "false"
  },
  {
    "MOLECULE": "Cc1ccc(N(C(=O)Cc2cccs2)C2C=CS(=O)(=O)C2)cc1Cl (stereo not drawn)",
    "CLASSIFICATION": "false"
  },
  {
    "MOLECULE": "CN1C(=O)c2ccccc2C(C(=O)NCCCN2CCCC2)C1c1c[nH]c2ccccc12 (stereo not drawn)",
    "CLASSIFICATION": "false"
  },
  {
    "MOLECULE": "CCN(CC)CCNc1nc(-c2ccc(OC(F)F)cc2)c(C)s1",
    "CLASSIFICATION": "false"
  },
  {
    "MOLECULE": "O=Cc1c(NCCc2cccc(F)c2)c2ccccc2[nH]c1=O",
    "CLASSIFICATION": "false"
  },
  {
    "MOLECULE": "CCN1CCN(C(=O)CCN2C(=O)c3ccccc3C2=O)CC1",
    "CLASSIFICATION": "false"
  },
  {
    "MOLECULE": "Cc1ccc(NS(=O)(=O)c2ccc(-c3ccc(=O)[nH]n3)o2)c(C)c1",
    "CLASSIFICATION": "false"
  },
  {
    "MOLECULE": "CCCc1nc(N2CCN(C)CC2)c2sc(=S)n(-c3ccccc3)c2n1",
    "CLASSIFICATION": "false"
  },
  {
    "MOLECULE": "Cc1cc(C(=O)OCC(=O)N2C(C)CCCC2C)c2ccccc2n1 (stereo not drawn)",
    "CLASSIFICATION": "false"
  },
  {
    "MOLECULE": "CN(C)c1nc2n(c(=O)n1)CCO2",
    "CLASSIFICATION": "false"
  },
  {
    "MOLECULE": "COc1ccccc1NC(=O)C1=C(C)Nc2nc3ccccc3n2C1c1cccs1 (stereo not drawn)",
    "CLASSIFICATION": "false"
  },
  {
    "MOLECULE": "Cc1ccsc1C(=O)OCC(=O)Nc1cccc(F)c1",
    "CLASSIFICATION": "false"
  },
  {
    "MOLECULE": "N#CC1=C(N)N(c2ccc(F)cc2)C(=O)C1",
    "CLASSIFICATION": "false"
  },
  {
    "MOLECULE": "COc1ccccc1CNC(=O)CN1CCC(n2cnc3cc(F)ccc32)CC1",
    "CLASSIFICATION": "false"
  },
  {
    "MOLECULE": "CC(C)=CCCC(C)CN1CCC(n2nccc2NC(=O)c2ccccc2)CC1 (stereo not drawn)",
    "CLASSIFICATION": "false"
  },
  {
    "MOLECULE": "O=C1NC(c2ccccc2)=NC1(Nc1ccccn1)C(F)(F)F (stereo not drawn)",
    "CLASSIFICATION": "false"
  },
  {
    "MOLECULE": "COc1ccc(-n2c(=O)[nH]c3cc(C(=O)NCCc4ccc(OC)c(OC)c4)ccc3c2=O)c(OC)c1",
    "CLASSIFICATION": "false"
  },
  {
    "MOLECULE": "O=C(COc1ccc(Cl)cc1)NCCSc1ccccc1",
    "CLASSIFICATION": "false"
  },
  {
    "MOLECULE": "COc1ccc(C)cc1N(CC(=O)NC(C)c1ccccc1)S(C)(=O)=O (stereo not drawn)",
    "CLASSIFICATION": "false"
  },
  {
    "MOLECULE": "CN1CCN(S(=O)(=O)c2ccc(Nc3ccc(F)cc3)nc2)CC1",
    "CLASSIFICATION": "false"
  },
  {
    "MOLECULE": "CN(c1ccccc1)S(=O)(=O)c1ccc(Cl)c(C(=O)OCC(=O)N2CCOCC2)c1",
    "CLASSIFICATION": "false"
  },
  {
    "MOLECULE": "COC(=O)C1C(=O)CC(C)(O)C(C(=O)OC)C1c1ccc2c(c1)OCO2 (stereo not drawn)",
    "CLASSIFICATION": "false"
  },
  {
    "MOLECULE": "COc1ccc(C(=O)O/N=C(\\N)Cc2ccc(Cl)cc2Cl)cc1OC",
    "CLASSIFICATION": "true"
  },
  {
    "MOLECULE": "Cc1n[nH]c(=O)n1-c1ccc(Oc2ccccc2)cc1",
    "CLASSIFICATION": "false"
  },
  {
    "MOLECULE": "Cc1nn(C)cc1N1C(=O)c2cccc3c(N)ccc(c23)C1=O",
    "CLASSIFICATION": "false"
  },
  {
    "MOLECULE": "CCOC(=O)C1C(c2ccc(OC)c(OC)c2)c2c([nH][nH]c2=O)CC1(C)O (stereo not drawn)",
    "CLASSIFICATION": "false"
  }
]
